# Test system: BJ human skin fibroblast cells
# test: eGFP mRNA transfection, BJ cells (96-well)
# Assay type: cell-based
# experimental_context: co-lipid DOPE, ratio 1/2; 150 ng eGFP mRNA; 24 h
value_kind: Transfection efficiency (eGFP %) BJ

Transfection efficiency (eGFP %) BJ measured on `CCCCCCCC/C=C\CCCCCCCCC(CCCCCCCC/C=C\CCCCCCCC)[n+]1ccn(C)c1.[Cl-]` = 80-95%

Transfection efficiency (eGFP %) BJ measured on CCCCCCCC/C=C\CCCCCCCCC(CCCCC(CCCCCCCCCCCCCC)CCCCCCCCCCCCCC)[n+]1ccn(CCCC)c1.[Cl-] (stereo not shown) = 90-95%

Transfection efficiency (eGFP %) BJ measured on CCCCCCC/C=C\CCCCCCCCC(CCCCCCCC/C=C\CCCCCCCC)[n+]1ccn(C)c1.[Cl-] (stereo not shown) = 80-85%

Transfection efficiency (eGFP %) BJ measured on `CCCCCCCCCCCCCCC(CCCCCCCCCCCCCC)[n+]1ccn(C)c1.[Cl-]` = 50-60%
